# System: HOP-92 NSCLC
# experimentDescription: NCI-60 one-dose screen, 48 h
# experimentalParameters: 10 µM unless noted
Compounds without any hit were thinned out: in the full panel of roughly 83,000, 20% have a hit. The source made the active and inactive calls. How the source made its calls: active means growth percent below 10; inactive means the rest.
Thanks in advance; please answer with one of these: active, inactive

These recorded examples may help you get a feel for the data.
compound: CCCCNC(=O)Oc1ccc(/C(=C(/C)Cc2ccc(OC)cc2)c2ccc(OCCN3CCCC3)cc2)cc1
classLabel: inactive
--
compound: O=C(c1nn(-c2ccccc2)c2c1CC(NCc1ccc(F)cc1)CC2)N1CCCCC1 (stereo not given)
classLabel: inactive
--
compound: COC1=CC(c2ccc[nH]2)=N/C1=C\c1[nH]c(C)c(C(=O)OC(C)C)c1C
classLabel: active

## Input Give the logged outcome of this assay for the following compound: Cc1ccc(CNc2ccc3nc(CCC4CCCCC4)[nH]c3c2)cc1
## Output active
